Protein target, amino acids: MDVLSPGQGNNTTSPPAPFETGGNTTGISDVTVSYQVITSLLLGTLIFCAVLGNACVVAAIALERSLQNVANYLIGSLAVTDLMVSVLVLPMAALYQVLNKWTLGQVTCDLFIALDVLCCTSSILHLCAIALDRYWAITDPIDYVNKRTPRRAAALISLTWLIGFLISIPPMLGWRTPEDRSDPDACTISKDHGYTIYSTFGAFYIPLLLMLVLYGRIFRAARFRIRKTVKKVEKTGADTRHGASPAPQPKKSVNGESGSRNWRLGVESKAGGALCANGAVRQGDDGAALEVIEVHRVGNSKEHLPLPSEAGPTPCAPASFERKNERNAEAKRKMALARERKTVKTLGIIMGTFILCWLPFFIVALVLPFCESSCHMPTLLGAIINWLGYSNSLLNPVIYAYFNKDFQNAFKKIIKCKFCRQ
Output schema: class label derived from Ki. Mapping: group A (below 10 nM), group B (10 nM to below 100 nM), group C (100 nM or more)

Examples with answers:
COMPOUND	CLASS LABEL
O=C1NCCc2ccc3c(c21)CC(NCCCc1c[nH]c2ccc(F)cc12)CO3 (racemic)	group B
O=C1NCCc2cc(F)c3c(c21)CC(N(CCCc1c[nH]c2ccc(F)cc12)CC1CC1)CO3 (racemic)	group B

Request: Could you tell me which band O=C1NCc2ccc3c(c21)CC(N(CCCc1c[nH]c2ccc(F)cc12)CC1CC1)CO3 (racemic) belongs to?
Result: group A

Request: Try this compound next: O=C1NCCc2ccc3c(c21)CC(N(CCCc1c[nH]c2ccc(F)cc12)C(=O)c1ccccc1)CO3 (racemic)
Result: group C

Request: Follow-up item: CC(C)N(CCCc1c[nH]c2ccc(F)cc12)C1COc2ccc3c(c2C1)C(=O)NCC3 (racemic)
Result: group C

Request: Another compound to check: O=C1NCc2ccc3c(c21)CC(N(CCCc1c[nH]c2ccc(F)cc12)C(=O)c1ccccc1)CO3 (racemic)
Result: group B

Request: Cool, now N#Cc1ccc2[nH]cc(CCCCN(CC3CC3)C3COc4ccc5c(c4C3)C(=O)NC5)c2c1 (single isomer, unassigned; (+))
Result: group B

----------
Readings of IC50 for the listed compounds
Target: 5-hydroxytryptamine receptor 1A (Homo sapiens, UniProt P08908)
Assay: Agonist activity at human 5HT1A receptor expressed in CHO cells assessed as inhibition of forskolin-induced adenylate cyclase activity
State just the number; it will be interpreted in nM.

Field: example entries. Status: answers known.
COMPOUND	TESTED TARGET	IC50 / nM
N#Cc1ccc2[nH]cc(CCCCN(CC3CC3)C3COc4ccc5c(c4C3)C(=O)NC5)c2c1 (single isomer, unassigned; (-))	5-hydroxytryptamine receptor 1A (Homo sapiens, UniProt P08908)	203
O=C1NCc2ccc3c(c21)CC(N(CCCc1c[nH]c2ccc(F)cc12)CC1CC1)CO3 (single isomer, unassigned; (-))	5-hydroxytryptamine receptor 1A (Homo sapiens, UniProt P08908)	320
N#Cc1ccc2[nH]cc(CCCCN(CC3CC3)C3COc4ccc5c(c4C3)C(=O)NC5)c2c1 (racemic)	5-hydroxytryptamine receptor 1A (Homo sapiens, UniProt P08908)	63

Now consider a different compound.
Request: Enter reported IC50 observed with 5-hydroxytryptamine receptor 1A (Homo sapiens, UniProt P08908) for O=C1NCc2ccc3c(c21)CC(N(CCCc1c[nH]c2ccc(F)cc12)CC1CC1)CO3 (racemic)
Result: 223

----------
Target: 5-hydroxytryptamine receptor 1A (Homo sapiens)
Experiment: Agonist activity at human 5HT1A receptor expressed in CHO cells assessed as inhibition of forskolin-induced adenylate cyclase activity
Please note: EC50 exactly at 50 nM is N. Only values below 50 nM get Y.

Worked set:
MOLECULE	CLASS LABEL
O=C1NCc2ccc3c(c21)CC(NCCCCc1c[nH]c2ccc(F)cc12)CO3 (racemic)	N
O=C1NCCc2ccc3c(c21)CC(NCCCc1c[nH]c2ccc(F)cc12)CO3 (racemic)	Y
N#Cc1ccc2[nH]cc(CCCNC3COc4ccc5c(c4C3)C(=O)NC5)c2c1 (racemic)	Y

Request: Problem: For the molecule O=C1NCCc2ccc3c(c21)CC(N(CCCc1c[nH]c2ccc(F)cc12)C1CCC1)CO3 (racemic) , is EC50 under 50 nM?
Result: N

Request: Queued: O=C1NCCc2ccc3c(c21)CC(N(CCCc1c[nH]c2ccc(F)cc12)CC1CC1)CO3 (racemic)
Result: Y

----------
Biological target: 5-hydroxytryptamine receptor 1A (Homo sapiens)
Assay: Agonist activity at human 5HT1A receptor expressed in CHO cells by [35S]GTPgammaS binding assay
Type: functional, cell-based
ASSAY ENDPOINT: Emax (%)
Just the number in %, nothing appended.

COMPOUND	UNIT INFO	Emax
O=C1NCc2ccc3c(c21)CC(N(CCCc1c[nH]c2ccc(F)cc12)CC1CC1)CO3 (stereo in doubt; (+)-46)	%	84
CN(CCCc1c[nH]c2ccc(F)cc12)C1COc2ccc3c(c2C1)C(=O)NCC3 (racemic)	%	99

Request: Notebook: pull reported Emax for 5-hydroxytryptamine receptor 1A (Homo sapiens), entry O=C1NCCc2ccc3c(c21)CC(N(CCCc1c[nH]c2ccc(F)cc12)CC1CC1)CO3 (racemic)
Result: 91

Request: Queued: O=C1NCCc2cc(F)c3c(c21)CC(NCCCc1c[nH]c2ccc(F)cc12)CO3 (racemic)
Result: 98

----------
Molecular target: 5-hydroxytryptamine receptor 1A (Homo sapiens, UniProt P08908)
ASSAY ENDPOINT: Ki (nM)
Use nM as the unit, but write only the number.

Sample records with Ki:
MOLECULE	TESTED TARGET	Ki / nM
CCCN(CCCc1c[nH]c2ccc(F)cc12)C1COc2ccc3c(c2C1)C(=O)NCC3 (racemic)	5-hydroxytryptamine receptor 1A (Homo sapiens, UniProt P08908)	13
N#Cc1ccc2[nH]cc(CCCCN(CC3CC3)C3COc4ccc5c(c4C3)C(=O)NC5)c2c1 (single isomer, unassigned; (-))	5-hydroxytryptamine receptor 1A (Homo sapiens, UniProt P08908)	10
O=C1NCc2ccc3c(c21)CC(N(CCCc1c[nH]c2ccc(F)cc12)C1CCC1)CO3 (racemic)	5-hydroxytryptamine receptor 1A (Homo sapiens, UniProt P08908)	101
O=C1NCCc2ccc3c(c21)CC(N(CCCc1c[nH]c2ccc(F)cc12)CCC(F)(F)F)CO3 (racemic)	5-hydroxytryptamine receptor 1A (Homo sapiens, UniProt P08908)	966

Let's switch to this molecule now.
Request: If you can, please state the reported Ki value of CCN(CCCc1c[nH]c2ccc(F)cc12)C1COc2c(F)cc3c(c2C1)C(=O)NCC3 (racemic) .
Result: 4
